- assayedTarget: Perilipin-1 (Homo sapiens)
- testName: inhibitors of ABHD5-PLIN1 binding, dose response, counter-screen for ABHD5-PLIN5 interaction inhibitor project, biochemical, luminescence (AID 651672); call rule not given here;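 further: split Gaussia luciferase complementation between ABHD5 and PLIN1 fusion fragments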
Classes to choose from: yes (1) for active, no (0) for inactive

molecule	assayedTarget	answerLabel
Cc1cccc(C)c1NC(=O)C(c1ccccc1F)n1c(=O)c(-c2ccco2)nc2ccccc21 (stereo not given)	Perilipin-1 (Homo sapiens)	yes (1)
O=C(NC1CCCCC1)C(c1cc2ccccc2o1)n1c(=O)c(-c2ccco2)nc2ccccc21 (stereo not given)	Perilipin-1 (Homo sapiens)	yes (1)

In the following, a different molecule is considered.
Inquiry: Outcome? `COc1cc(C(C)=O)ccc1OCc1cn(CC(=O)c2ccc(O)cc2)nn1`
Reply text: yes (1)

====

- assayedTarget: UniProt:O60240
- testName: inhibitors of ABHD5-PLIN1 binding, dose response, counter-screen for ABHD5-PLIN5 interaction inhibitor project, biochemical, luminescence (AID 651672);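 further: split Gaussia luciferase complementation between ABHD5 and PLIN1 fusion fragments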
Active and inactive are the calls of the source. How the calls were made is not given here.
Classes to choose from: active, inactive

Completed entries (count: 5):
molecule	answerLabel
O=C(Nc1ccc2c(c1)OCCO2)C(c1ccccc1F)n1c(=O)c(-c2ccco2)nc2ccccc21 (stereo not drawn)	active
CSc1nnc(NC(=O)c2nc(S(=O)(=O)Cc3ccc(C)cc3)ncc2Cl)s1	active
Cc1cccc(C)c1NC(=O)C(c1cccc2ccccc12)n1c(=O)c(-c2ccco2)nc2ccccc21 (stereo not drawn)	active
CCC(=O)Nc1cccc(C(=O)/C=C/c2ccccc2)c1	active
COc1cc2c(cc1OC)C(C)N(CCc1ccc(Cl)cc1)CC2 (stereo not drawn)	inactive

Inquiry: Outcome? CC(=O)Nc1ccc(S(=O)(=O)N2c3ccc(F)cc3CCC2C)cc1 (stereo not drawn)
Reply text: inactive

Inquiry: Outcome? O=C(/C=C/c1ccccc1)CC(O)(c1ccccc1)C(F)(F)C(F)F (stereo not drawn)
Reply text: active

Inquiry: Outcome? Cc1cc(C)c(C(CC(=O)c2cccs2)C(C#N)C#N)c(C)c1 (stereo not drawn)
Reply text: active

Inquiry: Outcome? `O=C(CF)N(O)c1ccc(C=Cc2ccccc2)cc1`
Reply text: inactive

Inquiry: Outcome? `CCc1nnc(NC(=O)c2nc(S(=O)(=O)Cc3cccc(C)c3)ncc2Cl)s1`
Reply text: active

Inquiry: Outcome? O=C(NCc1ccccc1)C(c1ccc(C(F)(F)F)cc1)n1c(=O)c(-c2ccco2)nc2ccccc21 (stereo not drawn)
Reply text: active

Inquiry: Outcome? N#Cc1ccc(C(C(=O)NCc2ccccc2)n2c(=O)c(-c3ccco3)nc3ccccc32)cc1 (stereo not drawn)
Reply text: active

Inquiry: Outcome? `O=c1[nH]c(C2CCN(S(=O)(=O)c3ccc(F)cc3)CC2)nc2c1nnn2Cc1ccc2c(c1)OCCO2`
Reply text: inactive

Inquiry: Outcome? `O=C(C[n+]1cccc(CNC(=O)c2ccc(OC(F)F)cc2)c1)Nc1cccc(C(F)(F)F)c1`
Reply text: inactive

Inquiry: Outcome? CC(C)(C)NC(=O)C(c1ccccc1F)n1c(=O)c(-c2ccco2)nc2ccccc21 (stereo not drawn)
Reply text: active

Inquiry: Outcome? O=C(NCc1ccccc1)C(c1cccc2ccccc12)n1c(=O)c(-c2ccco2)nc2ccccc21 (stereo not drawn)
Reply text: active

Inquiry: Outcome? CCC(C(=O)OCCN(CC)CC)c1ccccc1 (stereo not drawn)
Reply text: active

Inquiry: Outcome? Cc1ccc(/C(O)=C2/C(=O)C(=O)OC2c2ccc(Cl)cc2)cc1 (stereo not drawn)
Reply text: active

====

- assayedTarget: Perilipin-1 (Homo sapiens) (UniProt O60240)
- Sequence (O60240 whole entry, looked up, the tested form may be a part): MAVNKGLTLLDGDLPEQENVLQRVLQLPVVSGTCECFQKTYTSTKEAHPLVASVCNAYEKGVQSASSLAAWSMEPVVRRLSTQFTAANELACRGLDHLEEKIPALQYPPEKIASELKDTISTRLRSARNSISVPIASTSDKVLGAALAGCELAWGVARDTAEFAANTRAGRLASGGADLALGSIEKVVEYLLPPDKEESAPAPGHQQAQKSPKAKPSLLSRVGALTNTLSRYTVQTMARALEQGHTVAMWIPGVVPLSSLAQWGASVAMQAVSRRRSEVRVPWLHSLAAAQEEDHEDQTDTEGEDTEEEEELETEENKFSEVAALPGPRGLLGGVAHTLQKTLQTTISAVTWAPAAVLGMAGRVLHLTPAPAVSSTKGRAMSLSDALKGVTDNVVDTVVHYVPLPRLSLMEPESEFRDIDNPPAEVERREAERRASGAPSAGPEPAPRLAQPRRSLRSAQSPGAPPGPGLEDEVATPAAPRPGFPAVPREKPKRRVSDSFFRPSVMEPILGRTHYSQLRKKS
- testName: inhibitors of ABHD5-PLIN1 binding, dose response, counter-screen for ABHD5-PLIN5 interaction inhibitor project, biochemical, luminescence (AID 651672);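 further: split Gaussia luciferase complementation between ABHD5 and PLIN1 fusion fragments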
Calls of active or inactive are those of the source. How the calls were made is not given here.
readoutType: IC50

Examples with answers:
molecule	IC50
CN(C)CCOc1ccc(-c2c(-c3ccccc3)sc3ccccc23)cc1	inactive
Oc1ccc2sc(-c3ccccc3O)c(-c3ccc(OCCN4CCCCC4)cc3)c2c1	7.15 µM
CCCCCNC(=O)C(c1cc2ccccc2o1)n1c(=O)c(-c2ccco2)nc2ccccc21 (configuration not stated)	1.48 µM
CN(C)CCOC1(Cc2ccc(F)cc2)CCC(C(C)(C)C)CC1 (configuration not stated)	9.95 µM
Cc1nc2c(o1)CCc1ccccc1C2N1CCN(C)CC1 (configuration not stated)	inactive

Inquiry: Provide IC50 value for the following molecule: COc1ccc(C(C(=O)Nc2c(C)cccc2C)n2c(=O)c(-c3ccco3)nc3ccccc32)cc1 (configuration not stated)
Reply text: 1.88 µM

Inquiry: Provide IC50 value for the following molecule: `O=C(Cn1c(=O)n(Cc2ccco2)c(=O)c2c3c(sc21)CCCC3)Nc1ccccc1`
Reply text: 8.69 µM

====

- assayedTarget: Perilipin-1 (Homo sapiens) (UniProt O60240)
- testName: inhibitors of ABHD5-PLIN1 binding, dose response, counter-screen for ABHD5-PLIN5 interaction inhibitor project, biochemical, luminescence (AID 651672);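 further: split Gaussia luciferase complementation between ABHD5 and PLIN1 fusion fragments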
The source made the active and inactive calls. No rule for the calls is given here.
Classes to choose from: active, inactive

Completed entries (count: 10):
compound	answerLabel
NC(=O)C(C(=O)/C=C/c1ccc(Cl)cc1)=C1SCCS1	inactive
CN(C)CCN(Cc1ccco1)c1ccccn1	inactive
CC1=CC(C)(C)Nc2ccc(OC(=O)c3cccnc3)cc21	active
CN1[C@@H]2CC[C@H]1CC(OC1c3ccccc3CCc3ccccc31)C2 (stereo not given in full)	active
Cc1cc(C)c(NC(=O)C[N+](C)(C)CC(O)COc2cccc3ccccc23)c(C)c1 (stereo not given)	active
Cc1nnc(NC(=O)c2nc(S(=O)(=O)Cc3ccccc3C)ncc2Cl)s1	active
COc1ccc(-c2cc(N)n(S(=O)(=O)c3c(F)c(F)c(F)c(F)c3F)n2)cc1OC	active
O=C(NC1CCCCC1)C(c1ccnc2ccccc12)n1c(=O)c(-c2ccco2)nc2ccccc21 (stereo not given)	active
COc1ccc(C(C(=O)Nc2ccc3c(c2)OCCO3)n2c(=O)c(-c3ccco3)nc3ccccc32)cc1 (stereo not given)	active
O=C(COc1ccccc1Cl)Nc1ccc(N2CCCC2)cc1	inactive

Inquiry: Outcome? `COc1ccc(NC(=S)N(CCCN2CCCC2)Cc2cccn2Cc2ccc(Cl)cc2)cc1Cl`
Reply text: inactive

Inquiry: Outcome? O=C(NCc1ccccc1)C(c1ccc(-c2ccccc2)cc1)n1c(=O)c(-c2ccco2)nc2ccccc21 (stereo not given)
Reply text: active

Inquiry: Outcome? CC(C)(C)NC(=O)C(c1ccc(-c2ccccc2)cc1)n1c(=O)c(-c2ccco2)nc2ccccc21 (stereo not given)
Reply text: active

Inquiry: Outcome? `COc1cc(C)c2sc3ccccc3c(=O)c2c1NCCN(C)C`
Reply text: active

Inquiry: Outcome? CCOC(=O)C1C(OC(=O)c2ccccc2)CC2CCC1N2C (stereo not given)
Reply text: inactive

Inquiry: Outcome? CCC1(C)N=C(c2ccc3c(c2)OCO3)CC(c2ccccc2O)N1 (stereo not given)
Reply text: active

Inquiry: Outcome? Cc1cccc(C)c1NC(=O)C(c1ccnc2ccccc12)n1c(=O)c(-c2ccco2)nc2ccccc21 (stereo not given)
Reply text: active

Inquiry: Outcome? `Cc1ccc(S(=O)(=O)N2C[C@@]3(O)Cn4c(=O)ccc(=O)n4C[C@@]3(OC(=O)NCC3CCCCC3)C2)cc1`
Reply text: active

Inquiry: Outcome? CC(=O)OCC1=C(C(=O)O)N2C(=O)C(NC(=O)CCn3nc(C(F)(F)F)c(Br)c3C3CC3)C2SC1 (stereo not given)
Reply text: active

Inquiry: Outcome? CC(C)(C)NC(=O)C(c1ccnc2ccccc12)n1c(=O)c(-c2ccco2)nc2ccccc21 (stereo not given)
Reply text: active

Inquiry: Outcome? `COc1cccc2sc(N(CCCN(C)C)C(=O)COc3ccc(Cl)cc3)nc12`
Reply text: inactive

Inquiry: Outcome? COC/C=C/C1=CC2=CC(=O)C(C)(OC(=O)C3CCCC3)C(=O)C2=CO1 (stereo not given)
Reply text: active

Inquiry: Outcome? `C=CC(=O)N1c2ccccc2Sc2ccc(NC(=O)OCC)cc21`
Reply text: active

Inquiry: Outcome? `O=C(/C(=C/O)N=Nc1ccc(Cl)cc1)c1ccncc1`
Reply text: active

Inquiry: Outcome? `CCCCn1c(SCC(=O)NCc2ccco2)nnc1-c1ccoc1C`
Reply text: active
